test: Inhibition of TNFalpha-stimulated pro MMP9 production in human SRA 01/04 cells after 24 hrs by SDS-PAGE based gelatin zymography assay; type: functional, cell-based
ENDPOINT: IC50 (µM)

See these solved cases before continuing.
{"COMPOUND STRUCTURE STRING": "COc1cccc(-c2cc(=O)c3c(OC)c(OC)c(OC)c(OC)c3o2)c1", "UNIT TEXT": "µM", "IC50": 15.5}
{"COMPOUND STRUCTURE STRING": "COc1ccc(-c2cc(=O)c3c(OC)c(OC)c(OC)c(OC)c3o2)cc1", "UNIT TEXT": "µM", "IC50": 33.2}
{"COMPOUND STRUCTURE STRING": "COc1cc(OC)cc(-c2cc(=O)c3c(OC)c(OC)c(OC)c(OC)c3o2)c1", "UNIT TEXT": "µM", "IC50": 25.8}

a = COc1ccc(-c2cc(=O)c3c(O)c(OC)c(OC)c(OC)c3o2)cc1OC
b = COc1c(OC)c(OC)c2c(=O)cc(-c3cccc(O)c3)oc2c1OC
## Input For this pair, a and b , which shows a numerically higher IC50? Identify your selection by its label.
## Output a
